Numbers sourced from patent US20050208528A1.

Tested on: ISIS 2302
Assay: Long-term protection of creams by antioxidants, 40° C. for 1 month
Assay type: physicochemical
Parameters: unit: %
Conditions: additive 0.05%; cream, 0.03% ISIS 2302; 40° C. 1 month; LC/MS or SAX; no antioxidants 45.1, no excipients 91.3
Counter-ions that a name gives are not always drawn.
PROPERTY LABEL: full PS-content

*Q* Need full PS-content, item O=S(=O)([O-])c1ccc2[nH]c(S)nc2c1.[Na+]
*A* 95.2

(A) N[C@@H](CCC(=O)N[C@@H](CS)C(=O)NCC(=O)O)C(=O)O
(B) N[C@@H](CS)C(=O)O
(C) O=S(=O)(O)CCS [2-MESA, Na salt, 2-mercaptoethanesulfonic acid]
*Q* Arrange the 3 compounds from largest to smallest full PS-content. # the answer lists labels in the order requested
*A* C, A, B

====

Tested on: ISIS 2302
Test: Long-term protection of creams by antioxidants, 40° C. for 1 month
Assay type: physicochemical
Set-up: unit: %
Details: additive 0.2%; cream, 0.03% ISIS 2302; 40° C. 1 month; LC/MS or SAX; no antioxidants 45.1, no excipients 91.3
Counter-ions that a name gives are not always drawn.
PROPERTY LABEL: full PS-content

*Q* Need full PS-content, item N[C@@H](CCC(=O)N[C@@H](CS)C(=O)NCC(=O)O)C(=O)O
*A* 50.9

*Q* Need full PS-content, item N[C@@H](CS)C(=O)O
*A* 67.3

*Q* Need full PS-content, item O=S(=O)([O-])c1ccc2[nH]c(S)nc2c1.[Na+]
*A* 96.1

*Q* Need full PS-content, item O=S(=O)(O)CCS [2-MESA, Na salt, 2-mercaptoethanesulfonic acid]
*A* 72.5

====

System: ISIS 2302
Experiment: Long-term protection of creams by antioxidants, 40° C. for 1 month
Assay type: physicochemical
Parameters: unit: %
Conditions: additive 0.01%; cream, 0.03% ISIS 2302; 40° C. 1 month; LC/MS or SAX; no antioxidants 45.1, no excipients 91.3
Where a name gives a salt, the structure may show the parent alone.
PROPERTY LABEL: full PS-content

*Q* Need full PS-content, item O=S(=O)([O-])c1ccc2[nH]c(S)nc2c1.[Na+]
*A* 78.7

(I) O=S(=O)(O)CCS [2-MESA, Na salt, 2-mercaptoethanesulfonic acid]
(II) N[C@@H](CCC(=O)N[C@@H](CS)C(=O)NCC(=O)O)C(=O)O
(III) N[C@@H](CS)C(=O)O
*Q* Hey, quick one: sort these by full PS-content, low to high? # the answer lists labels in the order requested
*A* II, III, I

====

Test system: ISIS 2302
Test: Long-term protection of creams by antioxidants, 40° C. for 1 month
Type: physicochemical
Design: unit: %
Conditions: additive 0.8%; cream, 0.03% ISIS 2302; 40° C. 1 month; LC/MS or SAX; no antioxidants 45.1, no excipients 91.3
Structures can show the parent of a compound that is named as a salt.
PROPERTY LABEL: full PS-content

*Q* Need full PS-content, item N[C@@H](CCC(=O)N[C@@H](CS)C(=O)NCC(=O)O)C(=O)O
*A* 80.1

*Q* Need full PS-content, item O=S(=O)([O-])c1ccc2[nH]c(S)nc2c1.[Na+]
*A* 95.7

*Q* Need full PS-content, item O=S(=O)(O)CCS [2-MESA, Na salt, 2-mercaptoethanesulfonic acid]
*A* 86.7

*Q* Need full PS-content, item N[C@@H](CS)C(=O)O
*A* 81.9
